Here's a batch of molecules along with measured Post-treatment SI (selective index; CC50mean/IC50mean) for influenza A/Sydney/5/97 (H3N2).

# MOLECULE, REPORTED
rows = [
    ("COc1cc(O)c2c(ccc3c(OC)c(O)ccc32)c1-c1c(OC)cc(O)c2c1ccc1c(OC)c(O)ccc12 [Compound 4]", 4.3),
    ("COc1ccc2c(ccc3c(-c4c(O)cc(OC)c5c4CCc4cc(O)ccc4-5)c(O)cc(OC)c32)c1 [Compound 2]", 2.2),
    ("COc1ccc2c(ccc3c(-c4c(OC)cc(O)c5c4ccc4cc(O)ccc45)c(OC)cc(O)c32)c1 [Compound 7]", 4.1),
    ("COc1ccc2c(ccc3c(-c4c(O)c(OC)cc5c4CCc4cc(O)cc(OC)c4-5)c(O)cc(OC)c32)c1 [Compound 3]", 2.2),
]

Readout Post-treatment SI (selective index; CC50mean/IC50mean) for COc1cc(O)c2c(ccc3cc(O)ccc32)c1-c1c(OC)cc(O)c2c1ccc1cc(O)ccc12 [Compound 6] , test system influenza A/Sydney/5/97 (H3N2), was 2.8
